The values you see were collected from ChEMBL document CHEMBL1821688.

biological target: UniProt:P18433; test: Inhibition of human recombinant PTPalpha at 20 ug/mL
Sequence (P18433 20-802 limits assumed): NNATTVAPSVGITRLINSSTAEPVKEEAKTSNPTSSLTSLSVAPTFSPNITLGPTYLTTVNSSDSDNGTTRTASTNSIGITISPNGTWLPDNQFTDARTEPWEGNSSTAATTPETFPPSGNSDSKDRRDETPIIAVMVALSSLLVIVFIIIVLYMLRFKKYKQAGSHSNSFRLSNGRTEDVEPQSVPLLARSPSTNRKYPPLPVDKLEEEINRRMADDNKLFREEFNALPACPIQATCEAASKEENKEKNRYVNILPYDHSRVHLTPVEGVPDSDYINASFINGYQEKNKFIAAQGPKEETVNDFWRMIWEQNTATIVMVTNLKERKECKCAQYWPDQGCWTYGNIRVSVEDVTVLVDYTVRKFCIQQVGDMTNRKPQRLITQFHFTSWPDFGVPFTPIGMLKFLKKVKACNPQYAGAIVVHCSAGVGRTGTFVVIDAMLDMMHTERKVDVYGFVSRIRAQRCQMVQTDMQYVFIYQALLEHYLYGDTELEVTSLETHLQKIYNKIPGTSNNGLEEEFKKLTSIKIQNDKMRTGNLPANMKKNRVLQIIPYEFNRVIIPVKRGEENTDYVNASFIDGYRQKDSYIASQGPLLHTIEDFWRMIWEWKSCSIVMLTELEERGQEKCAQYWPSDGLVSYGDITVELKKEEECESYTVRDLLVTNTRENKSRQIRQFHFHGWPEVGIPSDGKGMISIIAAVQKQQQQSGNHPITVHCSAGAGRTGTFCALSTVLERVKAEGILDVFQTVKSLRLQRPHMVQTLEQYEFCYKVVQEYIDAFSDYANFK
The source made the active and inactive calls. The calls are words filed in the database; no cut-off is given here.

| compound | inhibition |
| --- | --- |
| O=C(/C=C/c1cccc(Cl)c1)NC(Cc1ccc2cc(OCc3ccccc3F)ccc2c1)C(=O)O (racemic) | inactive |
| COc1ccc(/C=C/C(=O)NC(Cc2ccc3cc(OCc4ccccc4F)ccc3c2)C(=O)O)cc1 (racemic) | inactive |
| O=C(/C=C/c1ccc(Cl)cc1)NC(Cc1ccc2cc(OCc3ccccc3F)ccc2c1)C(=O)O (racemic) | inactive |
| O=C(/C=C/c1ccc(Cl)cc1Cl)NC(Cc1ccc2cc(OCc3ccccc3F)ccc2c1)C(=O)O (racemic) | inactive |

* * *

target: M-phase inducer phosphatase 2 (Homo sapiens, UniProt P30305); assay: Inhibition of human recombinant CDC25B
Sequence (P30305 whole entry): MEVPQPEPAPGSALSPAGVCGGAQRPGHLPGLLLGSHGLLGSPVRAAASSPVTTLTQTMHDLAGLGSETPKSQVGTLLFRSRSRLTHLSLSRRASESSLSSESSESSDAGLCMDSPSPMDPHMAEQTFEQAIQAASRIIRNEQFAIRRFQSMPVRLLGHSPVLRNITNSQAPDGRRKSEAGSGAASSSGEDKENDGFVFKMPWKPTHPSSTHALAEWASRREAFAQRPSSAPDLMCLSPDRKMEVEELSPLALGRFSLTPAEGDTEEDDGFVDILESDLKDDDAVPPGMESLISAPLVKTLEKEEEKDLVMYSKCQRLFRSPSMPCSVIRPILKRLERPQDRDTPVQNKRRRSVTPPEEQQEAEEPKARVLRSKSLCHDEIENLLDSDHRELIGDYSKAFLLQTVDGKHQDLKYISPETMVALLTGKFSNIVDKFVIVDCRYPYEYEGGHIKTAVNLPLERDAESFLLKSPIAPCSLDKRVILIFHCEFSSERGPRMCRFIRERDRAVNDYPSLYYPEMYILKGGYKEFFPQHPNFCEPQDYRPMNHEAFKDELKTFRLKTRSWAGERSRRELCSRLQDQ
pIC50: −log10 of the molar value.

| compound | pIC50 |
| --- | --- |
| COc1cccc(/C=C/C(=O)NC(Cc2ccc3cc(OCc4ccccc4F)ccc3c2)C(=O)O)c1 (racemic) | 4.97 |
| O=C(/C=C/c1ccc(Cl)cc1Cl)NC(Cc1ccc2cc(OCc3ccccc3F)ccc2c1)C(=O)O (racemic) | 5.05 |
| COc1ccc(/C=C/C(=O)NC(Cc2ccc3cc(OCc4ccccc4F)ccc3c2)C(=O)O)cc1 (racemic) | 4.85 |
| Cc1ccc(/C=C/C(=O)NC(Cc2ccc3cc(OCc4ccccc4F)ccc3c2)C(=O)O)cc1 (racemic) | 4.93 |
| COc1ccc(/C=C/C(=O)NC(Cc2ccc3cc(OCc4ccccc4F)ccc3c2)C(=O)O)cc1OC (racemic) | 5.15 |
| O=C(/C=C/c1cccc(Cl)c1)NC(Cc1ccc2cc(OCc3ccccc3F)ccc2c1)C(=O)O (racemic) | 5.27 |
| O=C(/C=C/c1ccccc1Br)NC(Cc1ccc2cc(OCc3ccccc3F)ccc2c1)C(=O)O (racemic) | 5.54 |
| O=C(/C=C/c1ccccc1)NC(Cc1ccc2cc(OCc3ccccc3F)ccc2c1)C(=O)O (racemic) | 4.83 |
| O=C(/C=C/c1ccccc1Cl)NC(Cc1ccc2cc(OCc3ccccc3F)ccc2c1)C(=O)O (racemic) | 5.51 |
| O=C(Cc1ccc(Cl)cc1)NC(Cc1ccc2cc(OCc3ccccc3F)ccc2c1)C(=O)O (racemic) | 5.07 |
| O=C(/C=C/c1ccc(F)cc1)NC(Cc1ccc2cc(OCc3ccccc3F)ccc2c1)C(=O)O (racemic) | 5.18 |
| O=C(/C=C/c1cccc(F)c1)NC(Cc1ccc2cc(OCc3ccccc3F)ccc2c1)C(=O)O (racemic) | 5.29 |
| O=C(/C=C/c1ccccc1F)NC(Cc1ccc2cc(OCc3ccccc3F)ccc2c1)C(=O)O (racemic) | 5.34 |
| O=C(CCc1ccccc1)NC(Cc1ccc2cc(OCc3ccccc3F)ccc2c1)C(=O)O (racemic) | 4.82 |
| O=C(NC(Cc1ccc2cc(OCc3ccccc3F)ccc2c1)C(=O)O)c1ccccc1 (racemic) | 4.71 |
| O=C(/C=C/c1ccc(Br)cc1)NC(Cc1ccc2cc(OCc3ccccc3F)ccc2c1)C(=O)O (racemic) | 5.60 |
| O=C(/C=C/c1ccc(Cl)cc1)NC(Cc1ccc2cc(OCc3ccccc3F)ccc2c1)C(=O)O (racemic) | 5.58 |
| O=C(/C=C/c1ccc(Cl)c(Cl)c1)NC(Cc1ccc2cc(OCc3ccccc3F)ccc2c1)C(=O)O (racemic) | 5.25 |
| O=C(COc1ccc(Cl)cc1)NC(Cc1ccc2cc(OCc3ccccc3F)ccc2c1)C(=O)O (racemic) | 4.86 |

* * *

biological target: Tyrosine-protein phosphatase non-receptor type 6 (Homo sapiens, UniProt P29350); test: Inhibition of human recombinant SHP1 in Tris buffer of pH 8 at 20 ug/mL
Sequence (P29350 whole entry): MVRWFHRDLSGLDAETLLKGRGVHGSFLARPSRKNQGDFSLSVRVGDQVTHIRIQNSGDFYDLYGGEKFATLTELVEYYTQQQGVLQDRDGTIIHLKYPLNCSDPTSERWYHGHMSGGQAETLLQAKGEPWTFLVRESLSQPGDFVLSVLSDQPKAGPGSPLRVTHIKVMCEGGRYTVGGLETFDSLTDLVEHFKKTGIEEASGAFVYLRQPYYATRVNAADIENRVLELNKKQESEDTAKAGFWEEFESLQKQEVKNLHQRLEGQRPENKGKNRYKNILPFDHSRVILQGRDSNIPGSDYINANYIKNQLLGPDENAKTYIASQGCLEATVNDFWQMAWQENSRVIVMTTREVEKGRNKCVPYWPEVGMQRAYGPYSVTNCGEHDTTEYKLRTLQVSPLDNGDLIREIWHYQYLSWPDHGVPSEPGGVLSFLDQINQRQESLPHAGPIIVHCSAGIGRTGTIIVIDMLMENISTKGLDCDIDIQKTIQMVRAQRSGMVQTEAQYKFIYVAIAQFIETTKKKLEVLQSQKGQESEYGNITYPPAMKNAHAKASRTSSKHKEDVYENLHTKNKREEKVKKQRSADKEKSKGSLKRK
Active and inactive are the calls of the source. No cut-off for these calls is given here.

| molecule | experimental_target | inhibition |
| --- | --- | --- |
| COc1ccc(/C=C/C(=O)NC(Cc2ccc3cc(OCc4ccccc4F)ccc3c2)C(=O)O)cc1 (racemic) | Tyrosine-protein phosphatase non-receptor type 6 (Homo sapiens, UniProt P29350) | inactive |
| O=C(COc1ccc(Cl)cc1)NC(Cc1ccc2cc(OCc3ccccc3F)ccc2c1)C(=O)O (racemic) | Tyrosine-protein phosphatase non-receptor type 6 (Homo sapiens, UniProt P29350) | inactive |
| Cc1ccc(/C=C/C(=O)NC(Cc2ccc3cc(OCc4ccccc4F)ccc3c2)C(=O)O)cc1 (racemic) | Tyrosine-protein phosphatase non-receptor type 6 (Homo sapiens, UniProt P29350) | inactive |

* * *

Target protein (sequence): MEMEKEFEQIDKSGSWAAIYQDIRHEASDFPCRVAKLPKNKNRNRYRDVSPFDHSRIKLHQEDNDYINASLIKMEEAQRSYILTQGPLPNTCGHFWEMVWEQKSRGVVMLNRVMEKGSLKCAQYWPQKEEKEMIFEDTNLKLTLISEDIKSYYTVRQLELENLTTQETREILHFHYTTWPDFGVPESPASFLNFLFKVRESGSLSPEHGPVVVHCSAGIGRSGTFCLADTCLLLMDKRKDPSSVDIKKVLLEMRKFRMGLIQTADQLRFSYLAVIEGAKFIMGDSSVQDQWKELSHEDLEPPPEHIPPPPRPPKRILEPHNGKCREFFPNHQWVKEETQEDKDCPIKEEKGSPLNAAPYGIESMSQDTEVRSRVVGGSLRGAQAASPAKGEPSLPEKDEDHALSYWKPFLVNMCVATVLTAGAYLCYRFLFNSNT

| compound | IC50 |
| --- | --- |
| O=C(/C=C/c1cccc(Cl)c1)NC(Cc1ccc2cc(OCc3ccccc3F)ccc2c1)C(=O)O (racemic) | 4 µM |
| CC(C)(C)OC(=O)NC(Cc1ccc2cc(OCc3ccccc3F)ccc2c1)C(=O)O (racemic) | 11.1 µM |
| O=C(/C=C/c1cccc(F)c1)NC(Cc1ccc2cc(OCc3ccccc3F)ccc2c1)C(=O)O (racemic) | 2.79 µM |
| O=C(/C=C/c1ccccc1Br)NC(Cc1ccc2cc(OCc3ccccc3F)ccc2c1)C(=O)O (racemic) | 1.77 µM |
| O=C(/C=C/c1ccc(Cl)c(Cl)c1)NC(Cc1ccc2cc(OCc3ccccc3F)ccc2c1)C(=O)O (racemic) | 4.71 µM |
| COc1ccc(/C=C/C(=O)NC(Cc2ccc3cc(OCc4ccccc4F)ccc3c2)C(=O)O)cc1 (racemic) | 5.9 µM |

* * *

List of IC50 tested on UniProt P17706.

| molecule | IC50, µM |
| --- | --- |
| O=C(/C=C/c1ccc(Cl)cc1Cl)NC(Cc1ccc2cc(OCc3ccccc3F)ccc2c1)C(=O)O (racemic) | 6.11 |
| COc1cccc(/C=C/C(=O)NC(Cc2ccc3cc(OCc4ccccc4F)ccc3c2)C(=O)O)c1 (racemic) | 15.2 |
| O=C(/C=C/c1ccccc1)NC(Cc1ccc2cc(OCc3ccccc3F)ccc2c1)C(=O)O (racemic) | 18.9 |
| O=C(/C=C/c1cccc(F)c1)NC(Cc1ccc2cc(OCc3ccccc3F)ccc2c1)C(=O)O (racemic) | 6.08 |
| C[C@H]1[C@H](C)CC[C@]2(C(=O)O)CC[C@]3(C)C(=CC[C@@H]4[C@@]5(C)CC[C@H](O)C(C)(C)[C@@H]5CC[C@]43C)[C@H]12 | 6.7 |
| O=C(/C=C/c1ccccc1Cl)NC(Cc1ccc2cc(OCc3ccccc3F)ccc2c1)C(=O)O (racemic) | 3.84 |
| O=C(/C=C/c1cccc(Cl)c1)NC(Cc1ccc2cc(OCc3ccccc3F)ccc2c1)C(=O)O (racemic) | 7.24 |

* * *

target: Receptor-type tyrosine-protein phosphatase alpha (Homo sapiens); test: Inhibition of human recombinant PTPalpha at 20 ug/mL
The source made the active and inactive calls. The calls are words filed in the database; no cut-off is given here.

| compound | inhibition |
| --- | --- |
| O=C(CCc1ccccc1)NC(Cc1ccc2cc(OCc3ccccc3F)ccc2c1)C(=O)O (racemic) | inactive |
| O=C(Cc1ccc(Cl)cc1)NC(Cc1ccc2cc(OCc3ccccc3F)ccc2c1)C(=O)O (racemic) | inactive |
| O=C(NC(Cc1ccc2cc(OCc3ccccc3F)ccc2c1)C(=O)O)c1ccccc1 (racemic) | inactive |

* * *

target: Receptor-type tyrosine-protein phosphatase alpha (Homo sapiens); assay: Inhibition of human recombinant PTPalpha at 20 ug/mL
The source made the active and inactive calls. The calls are words filed in the database; no cut-off is given here.
property_name: inhibition

| molecule | endpoint_value |
| --- | --- |
| O=C(COc1ccc(Cl)cc1)NC(Cc1ccc2cc(OCc3ccccc3F)ccc2c1)C(=O)O (racemic) | inactive |
| O=C(/C=C/c1ccccc1Br)NC(Cc1ccc2cc(OCc3ccccc3F)ccc2c1)C(=O)O (racemic) | inactive |
| COc1ccc(/C=C/C(=O)NC(Cc2ccc3cc(OCc4ccccc4F)ccc3c2)C(=O)O)cc1OC (racemic) | inactive |
| O=C(/C=C/c1ccccc1Cl)NC(Cc1ccc2cc(OCc3ccccc3F)ccc2c1)C(=O)O (racemic) | inactive |

* * *

Target sequence: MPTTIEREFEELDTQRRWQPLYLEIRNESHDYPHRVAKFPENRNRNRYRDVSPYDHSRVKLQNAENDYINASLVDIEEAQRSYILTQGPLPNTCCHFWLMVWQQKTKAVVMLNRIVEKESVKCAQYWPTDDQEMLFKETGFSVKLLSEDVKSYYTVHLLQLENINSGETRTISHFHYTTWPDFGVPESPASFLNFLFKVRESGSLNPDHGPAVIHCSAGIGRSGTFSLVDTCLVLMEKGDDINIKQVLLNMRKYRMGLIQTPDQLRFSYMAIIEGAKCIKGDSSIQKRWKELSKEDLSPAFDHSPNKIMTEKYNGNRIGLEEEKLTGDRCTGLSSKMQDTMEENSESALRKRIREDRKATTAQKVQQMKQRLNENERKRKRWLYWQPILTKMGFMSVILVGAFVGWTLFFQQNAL
pIC50: −log10 of the molar value.

| compound | pIC50 |
| --- | --- |
| O=C(/C=C/c1ccc(Cl)c(Cl)c1)NC(Cc1ccc2cc(OCc3ccccc3F)ccc2c1)C(=O)O (racemic) | 4.82 |
| COc1ccc(/C=C/C(=O)NC(Cc2ccc3cc(OCc4ccccc4F)ccc3c2)C(=O)O)cc1 (racemic) | 5.04 |
| O=C(NC(Cc1ccc2cc(OCc3ccccc3F)ccc2c1)C(=O)O)c1ccccc1 (racemic) | 5.03 |
